Numbers sourced from patent US8193198B2.

System: Digitaria ciliaris
experimentalProtocol: Foliar treatment herbicidal activity test
Type: in vivo
protocolConditions: Digitaria ciliaris, 336 h, Table 3, 8 g a.i./ha, 2 weeks, scale 0 (no herbicidal effect) to 100 (complete destruction)
measurementType: pest or weed control at 8 g/ha (%)
Output spec: scalar in %, unitless text.

Solved entries (count: 3):
COC(=O)CNC(=O)C(C)Oc1cc(-n2c(=O)cc(C(F)(F)F)n(C)c2=O)c(F)cc1Cl (stereo not shown) [compound 1]    30
COC(=O)C(C)NC(=O)C(C)Oc1cc(-n2c(=O)cc(C(F)(F)F)n(C)c2=O)c(F)cc1Cl (stereo not shown) [compound 2]    25
COC(=O)CONC(=O)C(C)Oc1cc(-n2c(=O)cc(C(F)(F)F)n(C)c2=O)c(F)cc1Cl (stereo not shown) [compound 3]    10

[in] // lookup pest or weed control at 8 g/ha for COC(=O)CCNC(=O)C(C)Oc1cc(-n2c(=O)cc(C(F)(F)F)n(C)c2=O)c(F)cc1Cl (stereo not shown) [Compound No. 1]
[out] 100

* * *

Tested on: Echinochloa crus-galli
experimentalProtocol: Foliar treatment herbicidal activity test
Type: in vivo
protocolConditions: Echinochloa crus-galli, 336 h, Table 3, 8 g a.i./ha, 2 weeks, scale 0 (no herbicidal effect) to 100 (complete destruction)
measurementType: pest or weed control at 8 g/ha
Respond with a number, then the unit of measure.

COC(=O)C(C)NC(=O)C(C)Oc1cc(-n2c(=O)cc(C(F)(F)F)n(C)c2=O)c(F)cc1Cl (stereo not shown)    65%
COC(=O)CNC(=O)C(C)Oc1cc(-n2c(=O)cc(C(F)(F)F)n(C)c2=O)c(F)cc1Cl (stereo not shown)    55%
COC(=O)CCNC(=O)C(C)Oc1cc(-n2c(=O)cc(C(F)(F)F)n(C)c2=O)c(F)cc1Cl (stereo not shown)    100%

// next entry
[in] Record lookup: for Echinochloa crus-galli, what pest or weed control at 8 g/ha belongs to COC(=O)CONC(=O)C(C)Oc1cc(-n2c(=O)cc(C(F)(F)F)n(C)c2=O)c(F)cc1Cl (stereo not shown) ?
[out] 30%
